Values from patent US11872202B2

Tested on: Escherichia coli ATCC25922
TEST METHOD NOTES: MIC, micro-broth dilution method
Type: cell-based
STUDY CONDITIONS: Escherichia coli ATCC25922; 37° C., 20-22 h; read-out: Minimum inhibitory concentration
Description: The minimum inhibitory concentration (MIC) of pleuromutilin cinnamate easters and their starting materials was tested by a micro-broth dilution method, with retamoline, vornimulin and tiamulin as positive controls. […]
Items are presented alongside their recorded MIC.

>  <COMPOUND>
C=C[C@]1(C)C[C@@H](OC(=O)COC(=O)/C=C/c2cccc(F)c2)[C@]2(C)[C@H](C)CC[C@]3(CCC(=O)[C@H]32)[C@@H](C)[C@@H]1O [Compound 8]

>  <COMPARISON SIGN>
>

>  <MIC (µg/mL)>
256

$$$$
>  <COMPOUND>
C=C[C@]1(C)C[C@@H](OC(=O)COC(=O)/C=C/c2ccc(Cn3ccnc3)cc2)[C@]2(C)[C@H](C)CC[C@]3(CCC(=O)[C@H]32)[C@@H](C)[C@@H]1O [Compound 17]

>  <COMPARISON SIGN>
=

>  <MIC (µg/mL)>
64

$$$$
>  <COMPOUND>
C=C[C@]1(C)C[C@@H](OC(=O)COC(=O)/C=C/c2ccc(C(F)(F)F)cc2)[C@]2(C)[C@H](C)CC[C@]3(CCC(=O)[C@H]32)[C@@H](C)[C@@H]1O [Compound 15]

>  <COMPARISON SIGN>
=

>  <MIC (µg/mL)>
64

$$$$

====

System: Escherichia coli ATCC25922
TEST METHOD NOTES: MIC, micro-broth dilution method
Format: cell-based
STUDY CONDITIONS: Escherichia coli ATCC25922; 37° C., 20-22 h; read-out: Minimum inhibitory concentration
ATTRIBUTE MEASURED: log10(MIC) (log10 of the value in µg/mL)

>  <MOLECULE>
C=C[C@]1(C)C[C@@H](OC(=O)CSCCN(CC)CC)[C@]2(C)[C@H](C)CC[C@]3(CCC(=O)[C@H]32)[C@@H](C)[C@@H]1O [Tiamulin, reference compound]

>  <log10(MIC)>
2.11

$$$$
>  <MOLECULE>
C=C[C@]1(C)C[C@@H](OC(=O)COC(=O)/C=C/c2ccc(F)cc2)[C@]2(C)[C@H](C)CC[C@]3(CCC(=O)[C@H]32)[C@@H](C)[C@@H]1O [Compound 11]

>  <log10(MIC)>
2.11

$$$$
>  <MOLECULE>
C=C[C@]1(C)C[C@@H](OC(=O)COC(=O)/C=C/c2ccc(N(C)C)cc2)[C@]2(C)[C@H](C)CC[C@]3(CCC(=O)[C@H]32)[C@@H](C)[C@@H]1O [Compound 10]

>  <log10(MIC)>
1.20

$$$$
>  <MOLECULE>
C=C[C@]1(C)C[C@@H](OC(=O)COC(=O)/C=C/c2cccc(C(F)(F)F)c2)[C@]2(C)[C@H](C)CC[C@]3(CCC(=O)[C@H]32)[C@@H](C)[C@@H]1O [Compound 16]

>  <log10(MIC)>
1.81

$$$$
>  <MOLECULE>
C=C[C@]1(C)C[C@@H](OC(=O)COC(=O)/C=C/c2ccc3ccccc3c2)[C@]2(C)[C@H](C)CC[C@]3(CCC(=O)[C@H]32)[C@@H](C)[C@@H]1O [Compound 18]

>  <log10(MIC)>
2.41

$$$$
>  <MOLECULE>
C=C[C@]1(C)C[C@@H](OC(=O)COC(=O)/C=C/c2ccc(OC)c(OC)c2)[C@]2(C)[C@H](C)CC[C@]3(CCC(=O)[C@H]32)[C@@H](C)[C@@H]1O [Compound 7]

>  <log10(MIC)>
1.81

$$$$
>  <MOLECULE>
C=C[C@]1(C)C[C@@H](OC(=O)COC(=O)/C=C/c2ccc([N+](=O)[O-])cc2)[C@]2(C)[C@H](C)CC[C@]3(CCC(=O)[C@H]32)[C@@H](C)[C@@H]1O [Compound 1]

>  <log10(MIC)>
1.51

$$$$
>  <MOLECULE>
C=C[C@]1(C)C[C@@H](OC(=O)COC(=O)/C=C/c2cccc(Cl)c2)[C@]2(C)[C@H](C)CC[C@]3(CCC(=O)[C@H]32)[C@@H](C)[C@@H]1O [Compound 2]

>  <log10(MIC)>
1.81

$$$$
>  <MOLECULE>
C=C[C@]1(C)C[C@@H](OC(=O)COC(=O)/C=C/c2ccccc2)[C@]2(C)[C@H](C)CC[C@]3(CCC(=O)[C@H]32)[C@@H](C)[C@@H]1O [Compound 3]

>  <log10(MIC)>
2.11

$$$$
>  <MOLECULE>
C=C[C@]1(C)C[C@@H](OC(=O)COC(=O)/C=C/c2ccc(C(F)(F)F)cc2F)[C@]2(C)[C@H](C)CC[C@]3(CCC(=O)[C@H]32)[C@@H](C)[C@@H]1O [Compound 19]

>  <log10(MIC)>
2.11

$$$$

====

Test system: Escherichia coli ATCC25922
TEST METHOD NOTES: MIC, micro-broth dilution method
Type: cell-based
STUDY CONDITIONS: Escherichia coli ATCC25922; 37° C., 20-22 h; read-out: Minimum inhibitory concentration
Items are presented alongside their recorded MIC.

>  <MOLECULE>
C=C[C@]1(C)C[C@@H](OC(=O)COC(=O)/C=C/c2cccc(OCc3ccccc3)c2)[C@]2(C)[C@H](C)CC[C@]3(CCC(=O)[C@H]32)[C@@H](C)[C@@H]1O [Compound 13]

>  <MEASUREMENT UNIT>
µg/mL

>  <COMPARISON SIGN>
>

>  <MIC>
256

$$$$
>  <MOLECULE>
C=C[C@]1(C)C[C@@H](OC(=O)COC(=O)/C=C/c2ccccc2C(F)(F)F)[C@]2(C)[C@H](C)CC[C@]3(CCC(=O)[C@H]32)[C@@H](C)[C@@H]1O [Compound 21]

>  <MEASUREMENT UNIT>
µg/mL

>  <COMPARISON SIGN>
>

>  <MIC>
256

$$$$
>  <MOLECULE>
C=C[C@]1(C)C[C@@H](OC(=O)COC(=O)/C=C/c2ccc(F)c(F)c2F)[C@]2(C)[C@H](C)CC[C@]3(CCC(=O)[C@H]32)[C@@H](C)[C@@H]1O [Compound 12]

>  <MEASUREMENT UNIT>
µg/mL

>  <COMPARISON SIGN>
=

>  <MIC>
64

$$$$
>  <MOLECULE>
C=C[C@]1(C)C[C@@H](OC(=O)COC(=O)/C=C/c2ccc(F)c(Cl)c2)[C@]2(C)[C@H](C)CC[C@]3(CCC(=O)[C@H]32)[C@@H](C)[C@@H]1O [Compound 20]

>  <MEASUREMENT UNIT>
µg/mL

>  <COMPARISON SIGN>
=

>  <MIC>
64

$$$$
>  <MOLECULE>
C=C[C@]1(C)C[C@@H](OC(=O)COC(=O)/C=C/c2ccc(OC)cc2)[C@]2(C)[C@H](C)CC[C@]3(CCC(=O)[C@H]32)[C@@H](C)[C@@H]1O [Compound 4]

>  <MEASUREMENT UNIT>
µg/mL

>  <COMPARISON SIGN>
=

>  <MIC>
32

$$$$
>  <MOLECULE>
C=C[C@]1(C)C[C@@H](OC(=O)COC(=O)/C=C/c2cccc(C#N)c2)[C@]2(C)[C@H](C)CC[C@]3(CCC(=O)[C@H]32)[C@@H](C)[C@@H]1O [Compound 5]

>  <MEASUREMENT UNIT>
µg/mL

>  <COMPARISON SIGN>
=

>  <MIC>
64

$$$$
>  <MOLECULE>
C=C[C@]1(C)C[C@@H](OC(=O)COC(=O)/C=C/c2cc(Br)ccc2F)[C@]2(C)[C@H](C)CC[C@]3(CCC(=O)[C@H]32)[C@@H](C)[C@@H]1O [Compound 9]

>  <MEASUREMENT UNIT>
µg/mL

>  <COMPARISON SIGN>
=

>  <MIC>
64

$$$$

====

Test system: Methicillin-resistant Staphylococcus aureus ATCC33591
TEST METHOD NOTES: MIC, micro-broth dilution method
Assay type: cell-based
STUDY CONDITIONS: Methicillin-resistant Staphylococcus aureus ATCC33591; 37° C., 20-22 h; read-out: Minimum inhibitory concentration
Items are presented alongside their recorded MIC.

>  <SUBSTANCE SMILES>
C=C[C@]1(C)C[C@@H](OC(=O)COC(=O)/C=C/c2ccc(Cn3ccnc3)cc2)[C@]2(C)[C@H](C)CC[C@]3(CCC(=O)[C@H]32)[C@@H](C)[C@@H]1O

>  <MEASURED TARGET>
Methicillin-resistant Staphylococcus aureus ATCC33591

>  <MIC / µg/mL>
32

$$$$
>  <SUBSTANCE SMILES>
C=C[C@]1(C)C[C@@H](OC(=O)COC(=O)/C=C/c2ccc([N+](=O)[O-])cc2)[C@]2(C)[C@H](C)CC[C@]3(CCC(=O)[C@H]32)[C@@H](C)[C@@H]1O

>  <MEASURED TARGET>
Methicillin-resistant Staphylococcus aureus ATCC33591

>  <MIC / µg/mL>
4

$$$$
>  <SUBSTANCE SMILES>
C=C[C@]1(C)C[C@@H](OC(=O)COC(=O)/C=C/c2ccc(OC)c(OC)c2)[C@]2(C)[C@H](C)CC[C@]3(CCC(=O)[C@H]32)[C@@H](C)[C@@H]1O

>  <MEASURED TARGET>
Methicillin-resistant Staphylococcus aureus ATCC33591

>  <MIC / µg/mL>
32

$$$$
>  <SUBSTANCE SMILES>
C=C[C@]1(C)C[C@@H](OC(=O)COC(=O)/C=C/c2cc(Br)ccc2F)[C@]2(C)[C@H](C)CC[C@]3(CCC(=O)[C@H]32)[C@@H](C)[C@@H]1O

>  <MEASURED TARGET>
Methicillin-resistant Staphylococcus aureus ATCC33591

>  <MIC / µg/mL>
64

$$$$
>  <SUBSTANCE SMILES>
C=C[C@]1(C)C[C@@H](OC(=O)COC(=O)/C=C/c2ccc(F)cc2)[C@]2(C)[C@H](C)CC[C@]3(CCC(=O)[C@H]32)[C@@H](C)[C@@H]1O

>  <MEASURED TARGET>
Methicillin-resistant Staphylococcus aureus ATCC33591

>  <MIC / µg/mL>
32

$$$$
